Target: E. coli-expressed recombinant Q130 human IL-13 (human, UniProt P35225 35-146, limits assumed)
Sequence (P35225 35-146 limits assumed): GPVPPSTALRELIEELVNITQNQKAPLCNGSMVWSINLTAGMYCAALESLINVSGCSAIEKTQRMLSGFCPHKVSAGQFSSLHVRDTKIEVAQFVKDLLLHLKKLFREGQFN
Assay: cell-based or functional assay
Below, each entry is listed with its recorded Mean ND50 for 2 assays.

- binder: "L2+A1 (antibody, human IgG1, kappa, V domains shown, Humanised 6A1, VH construct A1 and VL construct L2; also called A1L2) VH: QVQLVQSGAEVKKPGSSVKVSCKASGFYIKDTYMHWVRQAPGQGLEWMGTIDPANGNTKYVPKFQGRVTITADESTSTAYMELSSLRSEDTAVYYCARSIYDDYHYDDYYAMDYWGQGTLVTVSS VL: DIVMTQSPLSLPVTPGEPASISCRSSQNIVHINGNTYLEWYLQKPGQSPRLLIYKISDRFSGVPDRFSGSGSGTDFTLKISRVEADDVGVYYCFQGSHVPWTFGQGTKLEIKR"
  Mean ND50 for 2 assays: "0.705 µg/mL"
- binder: "monoclonal antibody 6A1 (antibody, IgG1, V domains shown, also called 6A1 parental mAb; parental mouse mAb 6A1) VH: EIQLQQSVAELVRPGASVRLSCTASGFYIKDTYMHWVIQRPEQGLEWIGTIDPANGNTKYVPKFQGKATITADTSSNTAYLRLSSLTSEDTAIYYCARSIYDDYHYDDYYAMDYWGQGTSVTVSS VL: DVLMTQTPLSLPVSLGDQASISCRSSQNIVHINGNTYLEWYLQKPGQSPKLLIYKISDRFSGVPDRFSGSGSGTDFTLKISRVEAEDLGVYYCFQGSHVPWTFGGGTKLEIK"
  Mean ND50 for 2 assays: "0.213 µg/mL"
- binder: "chimaeric 6A1 (antibody, human IgG1, V domains shown, Parent murine 6A1 V regions on human IgG1/k wild type C regions, expressed in CHO cells; also called 6A1c; 6A1 chimaeric antibody) VH: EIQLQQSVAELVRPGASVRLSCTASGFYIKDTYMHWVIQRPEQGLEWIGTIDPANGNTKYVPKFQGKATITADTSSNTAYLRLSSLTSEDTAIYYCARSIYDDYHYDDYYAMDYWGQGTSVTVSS VL: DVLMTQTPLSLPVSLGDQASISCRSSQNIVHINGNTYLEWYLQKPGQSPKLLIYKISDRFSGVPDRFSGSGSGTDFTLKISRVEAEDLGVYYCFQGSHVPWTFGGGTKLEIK"
  Mean ND50 for 2 assays: "0.128 µg/mL"
- binder: "L1+A1 (antibody, human IgG1, kappa, V domains shown, Humanised 6A1, VH construct A1 and VL construct L1, human gamma1 wild type / kappa constant regions; also called A1L1; humanised anti-IL-13 mAb L1+A1) VH: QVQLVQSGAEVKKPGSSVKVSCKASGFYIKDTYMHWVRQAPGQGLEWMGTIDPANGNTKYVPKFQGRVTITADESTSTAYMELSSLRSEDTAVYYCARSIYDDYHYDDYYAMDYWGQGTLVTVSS VL: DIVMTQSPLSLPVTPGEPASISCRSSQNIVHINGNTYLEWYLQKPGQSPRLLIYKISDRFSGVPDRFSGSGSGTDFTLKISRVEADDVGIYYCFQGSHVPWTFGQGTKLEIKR"
  Mean ND50 for 2 assays: "0.438 µg/mL"

Sourced from patent US20110243928A1
